PBM binding z-score listing for selected sequences.
Tested on: RXRa DBDmut IVT, anti-RXR (DBD mutation: RXRa K156A/R161A, NR concentration 90 nM)
Experiment: PBM binding z-score (relative to random genomic background probes); higher = stronger binding; sequences stand for … in GC…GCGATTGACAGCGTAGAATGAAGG
Please reply with the number alone, leaving off any unit.

Solved cases below.
Entry sequence	PBM binding z-score
ACTAGCAGGCCAAGTTTGGGTCACGCAAACAAAG	-0.213
GCTGCTAGGTCAACTGATAGTCAGCTAAAGCTCG	1.68
TCTAGCAGACCAGAGGGTCACTCAAGAGGTACGG	-0.0475
CCGACTCGGGCAGAAAGGTTACCATACCATCCGG	-0.246
CTACCAAGGTGAATAAGGTCGTTGATTACTATTC	1.38

Then this sequence:
input: I would be grateful if you could share the reported PBM binding z-score for `CCTACTGGGCCAAGGTCATTGGTCAGTCAAAGCA` .
output: 0.988

====

Tested on: RXRa DBDmut IVT, anti-RXR (DBD mutation: RXRa K156A/R161A, NR concentration 90 nM)
Experiment: PBM binding z-score (relative to random genomic background probes); higher = stronger binding; sequences stand for … in GC…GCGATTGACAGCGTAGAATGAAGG
Tag: rule met if measured PBM binding z-score is not below 1, rule not met if it is.

input: Decide: PBM binding z-score of `TCTAGCAGGCCAGACGGTCACTCAAGAGGTACGG` >= 1?
output: rule not met

input: Also, `GCTAGTTGGTCAGAAAAAGGTCACACACCGGTCG` please.
output: rule not met

input: Moving on to `CAAACTAGGTCAATAGGTCAAAGTCCGCTTCCCG`
output: rule met

input: Item: `CCGACTGGGGCAAAAGTTACCATACTCAGTACGA`
output: rule not met

input: Param item: `TAGTCTAGGTCATTCAGGGGCCAGTATAGAAAGC`
output: rule met

input: Input `GCTCGGAGTACAAGGTCAGAGCTTTGTCCGTAGA`
output: rule met

====

System: PPARa:RXRa (NR concentration 270 nM, RXRa partner concentration 90 nM)
Assay: PBM binding z-score (relative to random genomic background probes); higher = stronger binding; sequences stand for … in GC…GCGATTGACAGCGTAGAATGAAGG
Everything with PBM binding z-score lower than 3 is rule not met; everything else, including exactly 3, is rule met.

Consider the worked cases shown below.
Entry sequence	Class label
GCGAGTTGGTCAGTAAAAGGTCACACACCGGTCG	rule met
AGAATGAGGTTATTAAGATCAGGAAATTGCGGTC	rule not met
TCTAGTTGTTCACGGAGGTCACACACGACGGGTA	rule met
TAACCTAGGTCATTCAGGGGCCAGTATAGAAAGC	rule met
ATAAGTAGGTTACATCCGGGTCATTCAGGCTATG	rule met

input: Record `TGTCAAAGTTCAAAGGTAACGTTAGTATCCACAC` ; criterion: PBM binding z-score no lower than 3. Met?
output: rule met

input: Next entry: `TAGCCTAGGTCATTTAGGGGCCAGTATAGAAAGC`
output: rule met

input: Another sequence to check: `GGAACGAGGGCAAAGTTGATAGCTTCTGTCGACG`
output: rule met

input: Next up: `ATATATAGGTTAAGGGTCATTCAGGTTGGTTCGC`
output: rule met

input: Query `AATACAGCGTCATCGTAGGCCAGAGTACGCACAG` next
output: rule not met
